Overview of reported normalised viability across a group of compounds:
System: MDA-MB-453
PROCEDURE TEXT: normalised viability (% of control), CellTiter-Blue; higher = more viable cells (about 100 = DMSO control)
MEASUREMENT SETUP: incubation time: 72 h
Entry rule: numbers only, all in %.

For orientation, consider the following solved cases.
O=C(O)CC[C@H]1CC[C@@](c2cc(F)ccc2F)(S(=O)(=O)c2ccc(Cl)cc2)CC1 [MK-0752] (300 nM)
114
NC(=O)NO [Hydroxyurea] (30000 nM)
93.1

Incoming: Which normalised viability is listed for C[C@@H](CN1CC(=O)NC(=O)C1)N1CC(=O)NC(=O)C1 [Dexrazoxane] (3000 nM) ?
Outgoing: 87.5

Incoming: Quick one: normalised viability of NC1(c2ccc(-c3nc4ccn5c(=O)[nH]nc5c4cc3-c3ccccc3)cc2)CCC1 [MK-2206] (300 nM) ?
Outgoing: 73

Incoming: I would be grateful if you could share the reported normalised viability for C[C@@H](C(=O)O)c1ccc(-c2ccccc2)c(F)c1 [Tarenflurbil] (3000 nM) .
Outgoing: 79.5

Incoming: Tell me the measured normalised viability of Cc1cc2c(F)c(Oc3ncnn4cc(OC[C@@H](C)O)c(C)c34)ccc2[nH]1 [Brivanib] (300 nM) , please.
Outgoing: 99.1

Incoming: Which normalised viability reading was recorded for the compound CC(C)C(=O)Nc1ccc([N+](=O)[O-])c(C(F)(F)F)c1 [Flutamide] (3000 nM) ?
Outgoing: 120

Incoming: Which normalised viability is reported for this compound? Cc1c(C(=O)Nc2ccc(N3C[C@@H](C)O[C@@H](C)C3)nc2)cccc1-c1ccc(OC(F)(F)F)cc1 [NVP-LDE225] (3000 nM)
Outgoing: 75.2

* * *

System: HDQ-P1
PROCEDURE TEXT: drug sensitivity score (DSS), CellTox Green (DSS (AUC-based score)); higher = stronger drug effect (viability inhibition or cytotoxicity); extreme values may be limits of the assay
MEASUREMENT SETUP: incubation time: 72 h
OBSERVED PROPERTY: drug sensitivity score
Keep it simple and answer with nothing but the number.

Incoming: Return reported drug sensitivity score; argument: `CC(C)NC[C@@H](C(=O)N1CCN(c2ncnc3c2[C@H](C)C[C@H]3O)CC1)c1ccc(Cl)cc1`
Outgoing: 0.469

Incoming: Entry `CC[C@@H]1C(=O)N(C)c2cnc(Nc3ccc(C(=O)N[C@H]4CC[C@H](N5CCN(CC6CC6)CC5)CC4)cc3OC)nc2N1C(C)C` : reported drug sensitivity score = ?
Outgoing: 7.16

Incoming: Report drug sensitivity score for `CO[C@H]1C[C@@H]2CC[C@@H](C)[C@@](O)(O2)C(=O)C(=O)N2CCCC[C@H]2C(=O)O[C@H]([C@H](C)C[C@@H]2CC[C@@H](O)[C@H](OC)C2)CC(=O)[C@H](C)/C=C(\C)[C@@H](O)[C@@H](OC)C(=O)[C@H](C)C[C@H](C)/C=C/C=C/C=C/1C` please.
Outgoing: 0

* * *

Test system: MDA-MB-231
PROCEDURE TEXT: normalised viability (% of control), CellTiter-Blue; higher = more viable cells (about 100 = DMSO control)
MEASUREMENT SETUP: 100 nM; incubation time: 72 h
OBSERVED PROPERTY: normalised viability (%)
Give a bare numeral; the unit % is implied.

Worked examples, 3 molecules total:
CC(C)C(=O)Nc1ccc([N+](=O)[O-])c(C(F)(F)F)c1 [Flutamide]
129
O=C(c1cc(Cc2n[nH]c(=O)c3ccccc23)ccc1F)N1CCN(C(=O)C2CC2)CC1
76.5
Cc1c(C(=O)Nc2ccc(N3C[C@@H](C)O[C@@H](C)C3)nc2)cccc1-c1ccc(OC(F)(F)F)cc1
99

Kindly review the next molecule as well.
Incoming: Requested read-out: normalised viability. Entry: Cc1c(N)nc([C@H](CC(N)=O)NC[C@H](N)C(N)=O)nc1C(=O)N[C@H](C(=O)N[C@H](C)[C@@H](O)[C@H](C)C(=O)N[C@H](C(=O)NCCc1nc(-c2nc(C(=O)NCCC[S+](C)C)cs2)cs1)[C@@H](C)O)[C@@H](OC1OC(CO)C(O)C(O)C1OC1OC(CO)C(O)C(OC(N)=O)C1O)c1cnc[nH]1 (some centres undefined)
Outgoing: 81.8

* * *

Test system: MFM-223
PROCEDURE TEXT: normalised response (% of control), CellTiter-Glo; higher = more viable cells (100 = DMSO, 0 = benzethonium chloride kill control)
MEASUREMENT SETUP: incubation time: 72 h
OBSERVED PROPERTY: normalised response (%)
State the answer as a number, implicitly in %.

The examples below pair each entry with its known result.
NC1(c2ccc(-c3nc4ccn5c(=O)[nH]nc5c4cc3-c3ccccc3)cc2)CCC1 [MK-2206] (100 nM)
98.5
O=C(c1cc(Cc2n[nH]c(=O)c3ccccc23)ccc1F)N1CCN(C(=O)C2CC2)CC1 [Olaparib] (1000 nM)
101
NC(=O)NO [Hydroxyurea] (100 nM)
108
Cn1nnc2c(C(N)=O)ncn2c1=O [Temozolomide] (1000 nM)
94.8
N[C@@H](Cc1ccc(N(CCCl)CCCl)cc1)C(=O)O [Melphalan] (12.5 nM)
99.5

Incoming: Which normalised response value belongs to CCc1c(C(=O)C(N)=O)c2c(OCC(=O)O)cccc2n1Cc1ccccc1 [Varespladib] (1000 nM) ?
Outgoing: 95.8

Incoming: Can you share its normalised response? I mean this compound: O=NN(CCCl)C(=O)NC1CCCCC1 [Lomustine] (10 nM)
Outgoing: 104

* * *

Tested on: Hs578T
PROCEDURE TEXT: normalised response (% of control), CellTox Green; higher = less cell death (100 = DMSO, 0 = benzethonium chloride kill control)
MEASUREMENT SETUP: incubation time: 72 h
# normalised response >= 80% gives y, anything below gives n

O=NN(CCCl)C(=O)NC1CCCCC1 [Lomustine] (10000 nM)
y

Incoming: Decide: normalised response of O=C(c1cc(Cc2n[nH]c(=O)c3ccccc23)ccc1F)N1CCN(C(=O)C2CC2)CC1 [Olaparib] (1000 nM) >= 80%?
Outgoing: y

Incoming: Assess whether reported normalised response for COc1cc2c(N3CCN(C(=O)Nc4ccc(OC(C)C)cc4)CC3)ncnc2cc1OCCCN1CCCCC1 [Tandutinib] (100 nM) sits at 80% or higher.
Outgoing: y

Incoming: Check this molecule for normalised response at or above 80%: COc1cc(Nc2ncc(F)c(Nc3ccc4c(n3)N(COP(=O)(O)O)C(=O)C(C)(C)O4)n2)cc(OC)c1OC [Fostamatinib] (250 nM)
Outgoing: y

Incoming: Please tell me: is the molecule CC(C)C[C@H](NC(=O)[C@H](CCc1ccccc1)NC(=O)CN1CCOCC1)C(=O)N[C@@H](Cc1ccccc1)C(=O)N[C@@H](CC(C)C)C(=O)[C@@]1(C)CO1 [Carfilzomib] (10 nM) at or over 80% in terms of normalised response?
Outgoing: n

* * *

System: HCC1599
PROCEDURE TEXT: normalised response (% of control), CellTox Green; higher = less cell death (100 = DMSO, 0 = benzethonium chloride kill control)
MEASUREMENT SETUP: incubation time: 72 h
OBSERVED PROPERTY: normalised response (%)
Report only the number, with the unit % understood.

Guide cases for normalised response, answers given:
CC[C@@H]1C(=O)N(C)c2cnc(Nc3ccc(C(=O)N[C@H]4CC[C@H](N5CCN(CC6CC6)CC5)CC4)cc3OC)nc2N1C(C)C [Volasertib] (10 nM)
91.3
CCN(CC)CCOc1ccc(C(=C(Cl)c2ccccc2)c2ccccc2)cc1 [Clomifene] (100 nM)
98.5
COc1cc(Nc2ncc(F)c(Nc3ccc4c(n3)N(COP(=O)(O)O)C(=O)C(C)(C)O4)n2)cc(OC)c1OC [Fostamatinib] (25 nM)
94.1
O=C(O)CC[C@H]1CC[C@@](c2cc(F)ccc2F)(S(=O)(=O)c2ccc(Cl)cc2)CC1 [MK-0752] (10 nM)
122
CCc1c(C(=O)C(N)=O)c2c(OCC(=O)O)cccc2n1Cc1ccccc1 [Varespladib] (1000 nM)
99.3
COc1cc2c(N3CCN(C(=O)Nc4ccc(OC(C)C)cc4)CC3)ncnc2cc1OCCCN1CCCCC1 [Tandutinib] (1000 nM)
100

Incoming: Any idea what its normalised response is? The compound is CN1CCN(c2nc(C3=C(c4c[nH]c5ccccc45)C(=O)NC3=O)c3ccccc3n2)CC1 [Sotrastaurin] (10000 nM)
Outgoing: 102

* * *

System: HCC1599
PROCEDURE TEXT: normalised viability (% of control), CellTiter-Blue; higher = more viable cells (about 100 = DMSO control)
MEASUREMENT SETUP: 100 nM; incubation time: 72 h
OBSERVED PROPERTY: normalised viability (%)
Numeric answer only, unit % assumed.

See these solved cases before continuing.
Nc1nc(Cl)nc2c1ncn2[C@@H]1O[C@H](CO)[C@@H](O)[C@@H]1F
93.7
Cn1nnc2c(C(N)=O)ncn2c1=O [Temozolomide]
115
C[C@@H]1C[C@H]2[C@@H]3CCC4=CC(=O)C=C[C@]4(C)[C@@]3(F)[C@@H](O)C[C@]2(C)[C@@]1(O)C(=O)CO
117
CC(C)C(=O)Nc1ccc([N+](=O)[O-])c(C(F)(F)F)c1 [Flutamide]
86.8

Proceeding to the next compound to report its normalised viability.
Incoming: // normalised viability lookup, key: `CCN(CC)CCOc1ccc(C(=C(Cl)c2ccccc2)c2ccccc2)cc1`
Outgoing: 100

Source listed as the supplement of paper PMC4862054.
